- MEASUREMENT_TARGET: AchR (Homo sapiens)
- Sequence (P02708 21-457): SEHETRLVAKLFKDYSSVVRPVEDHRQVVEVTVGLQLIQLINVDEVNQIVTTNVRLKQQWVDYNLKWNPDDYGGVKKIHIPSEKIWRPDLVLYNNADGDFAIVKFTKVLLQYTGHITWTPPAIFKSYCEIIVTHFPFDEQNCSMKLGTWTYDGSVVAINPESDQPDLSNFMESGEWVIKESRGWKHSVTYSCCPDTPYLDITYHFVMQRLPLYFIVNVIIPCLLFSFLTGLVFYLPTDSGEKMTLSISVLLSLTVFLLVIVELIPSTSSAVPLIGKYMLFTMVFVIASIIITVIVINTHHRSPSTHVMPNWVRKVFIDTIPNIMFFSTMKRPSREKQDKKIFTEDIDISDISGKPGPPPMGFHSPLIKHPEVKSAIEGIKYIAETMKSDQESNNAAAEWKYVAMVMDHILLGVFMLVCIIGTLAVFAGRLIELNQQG
- TEST_PROTOCOL: ELISA of screened peptide phages on AchR versus streptavidin (OD450)
- Type: binding
- RECORDED_CONDITIONS: ELISA of selected 11-mer (L2) peptide phages on AchR, absorbance at 450 nm; Spep-2 positive control
QUANTITY_KIND: OD

| SUBSTANCE | MEASUREMENT_TARGET | READOUT_NUMBER |
| --- | --- | --- |
| L2-56 (FICKSRKFYGK; AchR binding peptide) [Peptide L2-56] | AchR (Homo sapiens) | 0.713 |
| L2-129 (TCIKYRRAHTK; AchR binding peptide) [Peptide L2-129] | AchR (Homo sapiens) | 0.603 |
| L2-118 (FLRRLKKVHWK; AchR binding peptide) [Peptide L2-118] | AchR (Homo sapiens) | 0.65 |
| L2-197 (CPYRIRRGPGK; AchR binding peptide) [Peptide L2-197] | AchR (Homo sapiens) | 0.768 |
| L2-101 (NGVRERKWQSK; AchR binding peptide) [Peptide L2-101] | AchR (Homo sapiens) | 0.592 |
| L2-148 (DSNKVRKCSSK; AchR binding peptide) [Peptide L2-148] | AchR (Homo sapiens) | 0.604 |
| L2-186 (PNWKVRRFGDK; AchR binding peptide) [Peptide L2-186] | AchR (Homo sapiens) | 0.683 |
| L2-48 (VSTKIKKEPQR; AchR binding peptide) [Peptide L2-48] | AchR (Homo sapiens) | 0.629 |
| L2-98 (LMLRGKRLTTK; AchR binding peptide) [Peptide L2-98] | AchR (Homo sapiens) | 0.626 |
| L2-29 (AILKGKRIPNK; AchR binding peptide) [Peptide L2-29] | AchR (Homo sapiens) | 0.756 |
| L2-159 (CNQKTKKIAEK; AchR binding peptide) [Peptide L2-159] | AchR (Homo sapiens) | 0.696 |
| L2-76 (PWVRIRKMASR; AchR binding peptide) [Peptide L2-76] | AchR (Homo sapiens) | 0.725 |
| L2-94 (NPGKTKRWLQR; AchR binding peptide) [Peptide L2-94] | AchR (Homo sapiens) | 0.642 |
| L2-137 (CACKQRRATSR; AchR binding peptide) [Peptide L2-137] | AchR (Homo sapiens) | 0.452 |
| L2-167 (MFMRNKKLAWR; AchR binding peptide) [Peptide L2-167] | AchR (Homo sapiens) | 0.584 |
| L2-66 (PNYKWRKSRRR; AchR binding peptide) [Peptide L2-66] | AchR (Homo sapiens) | 0.798 |
| L2-2 (GIWKFRRNQCK; AchR binding peptide) [Peptide L2-2] | AchR (Homo sapiens) | 0.749 |
| L2-22 (MMMRHKRCQYR; AchR binding peptide) [Peptide L2-22] | AchR (Homo sapiens) | 0.75 |
| L2-36 (FIPKMRKCSPR; AchR binding peptide) [Peptide L2-36] | AchR (Homo sapiens) | 0.76 |
| L2-187 (TAAKWKKIIMK; AchR binding peptide) [Peptide L2-187] | AchR (Homo sapiens) | 0.731 |
| L2-20 (SWQKCKKAEVR; AchR binding peptide) [Peptide L2-20] | AchR (Homo sapiens) | 0.675 |
| L2-14 (GMWKVRKTVFR; AchR binding peptide) [Peptide L2-14] | AchR (Homo sapiens) | 0.746 |
| L2-116 (SHSRQRKTPLR; AchR binding peptide) [Peptide L2-116] | AchR (Homo sapiens) | 0.699 |
| L2-162 (NCDRTRKHWAR; AchR binding peptide) [Peptide L2-162] | AchR (Homo sapiens) | 0.584 |
| L2-72 (APHKWRKQEQR; AchR binding peptide) [Peptide L2-72] | AchR (Homo sapiens) | 0.638 |
| L2-115 (VRAKHRKSSLR; AchR binding peptide) [Peptide L2-115] | AchR (Homo sapiens) | 0.837 |
| L2-63 (IDGKWRKICTR; AchR binding peptide) [Peptide L2-63] | AchR (Homo sapiens) | 0.742 |
| L2-97 (DVNKYRKHSHK; AchR binding peptide) [Peptide L2-97] | AchR (Homo sapiens) | 0.531 |
| L2-183 (TCDRARKESFR; AchR binding peptide) [Peptide L2-183] | AchR (Homo sapiens) | 0.688 |
| L2-71 (PYLRSKRFPPR; AchR binding peptide) [Peptide L2-71] | AchR (Homo sapiens) | 0.651 |
| L2-192 (EHVKLKRLDFR; AchR binding peptide) [Peptide L2-192] | AchR (Homo sapiens) | 0.685 |
| L2-196 (QNMRMKRFIQR; AchR binding peptide) [Peptide L2-196] | AchR (Homo sapiens) | 0.574 |
| L2-58 (ANPKNRKDNLR; AchR binding peptide) [Peptide L2-58] | AchR (Homo sapiens) | 0.701 |
| L2-170 (QVHRNKRYTDR; AchR binding peptide) [Peptide L2-170] | AchR (Homo sapiens) | 0.718 |
| L2-60 (HADKFRRFNMR; AchR binding peptide) [Peptide L2-60] | AchR (Homo sapiens) | 0.697 |
| L2-88 (NAMRTKRMSFK; AchR binding peptide) [Peptide L2-88] | AchR (Homo sapiens) | 0.744 |
| L2-184 (MHQRERRNFVK; AchR binding peptide) [Peptide L2-184] | AchR (Homo sapiens) | 0.736 |
